Data provenance: paper PMC11784839

Entries and their measured raw data 2 follow.
- Tested System: tau (Homo sapiens)
- Sequence (P10636 623-695 limits assumed): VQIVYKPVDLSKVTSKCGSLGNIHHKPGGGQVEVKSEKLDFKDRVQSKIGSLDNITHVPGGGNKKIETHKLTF
- Experiment Summary: MCE Phenols Library screening, tau biosensor cell seeding assay (AvZ)
- Type: cell-based
- Run Conditions: raw puncta, replicate 2

| Compound | Tested System | raw data 2 |
| --- | --- | --- |
| COc1cc2c(c(O)c1OC)-c1c(cc(OC)c(OC)c1OC)C[C@@H](C)[C@@H](C)C2 | tau (Homo sapiens) | 11616.1 |
| COc1cccc(OC)c1C(=O)OCc1cc(O)ccc1O[C@@H]1O[C@H](CO)[C@@H](O)[C@H](O)[C@H]1O [Curculigoside] | tau (Homo sapiens) | 14220.1 |
| OC[C@]1(O)COc2cc(O)ccc2-c2cc(O)c(O)cc2C1 | tau (Homo sapiens) | 4130.62 |
| O=c1oc2cc(O)ccc2c2oc3cc(O)ccc3c12 | tau (Homo sapiens) | 6979.18 |
| COc1cc(/C=C/C(=O)OC(C)C)ccc1O [Isopropyl ferulate] | tau (Homo sapiens) | 3871.42 |
| COc1ccc(-c2oc3c(CC=C(C)C)c(O)cc(O)c3c(=O)c2O[C@@H]2O[C@@H](C)[C@H](O)[C@@H](O)[C@H]2O[C@@H]2O[C@H](CO)[C@@H](O)[C@H](O)[C@H]2O)cc1 [Sagittatoside A] | tau (Homo sapiens) | 7365.88 |
| C[C@@H]1O[C@@H](Oc2c(-c3ccc(O)c(O)c3)oc3cc(O)cc(O)c3c2=O)[C@H](O)[C@H](O)[C@H]1O | tau (Homo sapiens) | 9247.27 |
| COc1cc(CCC(O)CC(O)CCc2ccc(O)c(OC)c2)ccc1O (stereo not drawn) [Octahydrocurcumin] | tau (Homo sapiens) | 13115.6 |
| Oc1cc(O)c2c(c1)O[C@H](c1ccc(O)c(O)c1)[C@@H](O)[C@H]2O | tau (Homo sapiens) | 8965.07 |
| COc1cc2cc(Oc3ccc4ccc(=O)oc4c3)c(=O)oc2cc1O | tau (Homo sapiens) | 11088.8 |
| COc1cc2c(=O)c(-c3ccc(O)cc3)coc2cc1O | tau (Homo sapiens) | 7166.64 |
| O=C1c2ccccc2C(=O)c2c1ccc(O)c2O | tau (Homo sapiens) | 12262.8 |
| CC(=O)NCCc1c[nH]c2ccc(O)cc12 [N-Acetyl-5-hydroxytryptamine] | tau (Homo sapiens) | 4691.42 |
| CC[C@H]1CN2CCc3cc(OC)c(OC)cc3[C@@H]2C[C@@H]1C[C@H]1NCCc2cc(O)c(OC)cc21.Cl.Cl [Cephaeline (dihydrochloride)] | tau (Homo sapiens) | 5720.59 |
| COc1cc(/C=C/C(=O)O[C@H]2[C@H](O)[C@@H](CO)O[C@@]2(CO)O[C@H]2O[C@H](COC(=O)c3ccc(O)cc3)[C@@H](O)[C@H](O)[C@H]2O)cc(OC)c1O [Tenuifoliside B] | tau (Homo sapiens) | 12657.2 |

---

- Tested System: UniProtKB P10636
- Experiment Summary: MCE Phenols Library screening, tau biosensor cell seeding assay (AvZ)
- Format: cell-based
- Run Conditions: Z score, replicate 1
Entries and their measured Z repl 1 follow.

| Compound | Z repl 1 |
| --- | --- |
| COc1cc(CCO[C@@H]2O[C@H](CO[C@@H]3O[C@H](CO)[C@@H](O)[C@H](O)[C@H]3O)[C@@H](OC(=O)/C=C/c3ccc(O)c(O)c3)[C@H](O[C@@H]3O[C@@H](C)[C@H](O)[C@@H](O)[C@H]3O)[C@H]2O)ccc1O [Cistanoside A] | -0.369 |
| COc1c(O[C@@H]2O[C@H](C(=O)O)[C@@H](O)[C@H](O)[C@H]2O)cc(O)c2c(=O)cc(-c3ccccc3)oc12 [Wogonoside] | -0.039 |
| CC(=O)N[C@@H](Cc1ccc(O)cc1)C(=O)O | -0.073 |
